In this section, each of the binders is paired with its reported Human ENTPD2 NIH/3T3 Assay % inhibition.
Biological target: T1, human ENTPD2, full length, on cells (human, UniProt Q9Y5L3 1-495); note: test concentration or dose not given here
T1 sequence: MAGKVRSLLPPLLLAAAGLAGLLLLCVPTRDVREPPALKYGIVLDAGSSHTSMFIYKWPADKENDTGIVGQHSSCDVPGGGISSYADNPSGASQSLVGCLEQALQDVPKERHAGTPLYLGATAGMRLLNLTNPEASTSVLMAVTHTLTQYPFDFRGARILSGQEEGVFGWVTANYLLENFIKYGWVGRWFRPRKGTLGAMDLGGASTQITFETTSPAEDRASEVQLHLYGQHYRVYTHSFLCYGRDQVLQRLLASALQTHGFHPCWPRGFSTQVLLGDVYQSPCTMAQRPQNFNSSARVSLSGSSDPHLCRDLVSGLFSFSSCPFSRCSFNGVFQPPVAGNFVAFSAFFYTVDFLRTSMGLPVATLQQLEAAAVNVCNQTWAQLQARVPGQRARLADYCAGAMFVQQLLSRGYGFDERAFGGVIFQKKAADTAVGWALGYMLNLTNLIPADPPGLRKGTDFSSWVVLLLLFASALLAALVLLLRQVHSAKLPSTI
Assay: cell-based or functional assay

- BINDER: "ANTI-HUMAN ENTPD2 MAB3 (antibody, human IgG1, kappa, V domains shown) VH: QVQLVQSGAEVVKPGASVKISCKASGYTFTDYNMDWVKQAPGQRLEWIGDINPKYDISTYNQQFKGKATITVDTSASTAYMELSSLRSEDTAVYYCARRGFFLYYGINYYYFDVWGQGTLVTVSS VL: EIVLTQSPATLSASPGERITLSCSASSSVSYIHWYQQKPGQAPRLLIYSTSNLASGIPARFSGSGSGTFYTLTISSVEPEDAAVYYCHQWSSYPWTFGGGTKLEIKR"
  Human ENTPD2 NIH/3T3 Assay % inhibition [%]: 91
- BINDER: "ANTI-HUMAN ENTPD2 MAB18 (antibody, human IgG1, kappa, V domains shown) VH: DIQLQESGPGLVKPSQSLSLTCSVTGYSITSGYYWNWIRQFPGNKLEWMGYISYDGDNNYNPSLKNRISITRDTSKNQFFLKLSSVTTEDTATYYCAGGYYRYGLGSYSGSYYYVMDYWGQGTSVTVSS VL: DTVLTQSPASLAVSLGQRATISCKASQSVDYDGNSYMNWYQQKPGQPPKLLIYAASNLESGIPARFSGSGSGTDFTLNIHPVEEEDAATYYCQQSNEDPPTFGGGTKLEIKR"
  Human ENTPD2 NIH/3T3 Assay % inhibition [%]: 88
- BINDER: "ANTI-HUMAN ENTPD2 MAB10 (antibody, human IgG1, lambda, V domains shown) VH: QVQLVQSGAEVKKPGSSVKVSCKASGGTFDSYAVSWVRQAPGQGLEWMGRIVPWLGFTRYAQKFQGRVTITADESTSTAYMELSSLRSEDTAVYYCARESPGYRYSFDVWDQGTLVTVSS VL: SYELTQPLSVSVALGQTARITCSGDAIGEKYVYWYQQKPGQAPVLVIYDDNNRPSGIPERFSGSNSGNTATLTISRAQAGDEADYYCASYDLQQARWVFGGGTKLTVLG"
  Human ENTPD2 NIH/3T3 Assay % inhibition [%]: 88
- BINDER: "ANTI-HUMAN ENTPD2 MAB1 (antibody, human IgG1, kappa, V domains shown) VH: EVQLVQSGAEVKKPGESLKISCKASGYTFTDYNMDWVRQMPGKGLEWMGDINPKYDISTYNQQFKGQVTISADKSIRTAYLQWSSLKASDTAMYYCARRGFFLYYGINYYYFDVWGQGTLVTVSS VL: DIQLTQSPSSLSASVGDRVTITCSASSSVSYIHWFQQKPGKAPKLLIYSTSNLASGVPSRFSGSGSGTFFTLTISSLQPEDFATYFCHQWSSYPWTFGQGTKVEIKR"
  Human ENTPD2 NIH/3T3 Assay % inhibition [%]: 92
- BINDER: "ANTI-HUMAN ENTPD2 MAB9 (antibody, human IgG1, lambda, V domains shown) VH: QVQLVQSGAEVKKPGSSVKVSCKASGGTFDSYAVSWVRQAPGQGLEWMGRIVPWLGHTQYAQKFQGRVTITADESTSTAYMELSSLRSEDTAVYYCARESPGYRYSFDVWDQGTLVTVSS VL: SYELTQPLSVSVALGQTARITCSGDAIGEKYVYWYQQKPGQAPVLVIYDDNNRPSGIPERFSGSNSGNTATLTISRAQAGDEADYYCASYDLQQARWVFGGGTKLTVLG"
  Human ENTPD2 NIH/3T3 Assay % inhibition [%]: 92
